# System: IGROV-1
# procedure.text: NCI tumour cell line growth inhibition, 48 h
Activity calls are given as the source filed them. No stated cut-off is given here; in the data, active = GI50 up to about 1.1 µM and inactive = higher.
property.measured: GI50

Solved cases (4 shown):
compound	GI50
O=c1c2ccccc2nc(-c2ccccc2)n1NC(=S)Nc1ccc(Cl)cc1[N+](=O)[O-]	> 100 µM (inactive)
CC(C)C(C(=O)O)N1C(=O)c2ccccc2C1=O (stereo not given)	> 100 µM (inactive)
O=C1/C(=C/c2ccccc2O)N=C(c2ccccc2)N1C1Nc2cc3c(cc2S1)NC(N1C(=O)/C(=C/c2ccccc2O)N=C1c1ccccc1)S3 (stereo not given)	14.2 µM (inactive)
CCCCCCCCCCCCOC(=N)N1CCOCC1	12.6 µM (inactive)

From here, focus on the item given below.
Qu. Entry CCOC(=O)C1Cc2c(cc3c4c(cccc24)N(C(C)=O)C3)N(C)C1 (stereo not given) , system IGROV-1: what GI50 was measured?
Ans. 5.83 µM (inactive)

====

List of GI50 values.
# System: TK-10
# procedure.text: NCI tumour cell line growth inhibition, 48 h
The source made the active and inactive calls. Cut-off read from the data, not from the text of the source: active = GI50 up to about 1.1 µM and inactive = higher.

Solved cases (5 shown):
compound	target.system	GI50
CCN(CC)C(=S)N/N=C(\C)c1ccccc1O	TK-10	62.1 µM (inactive)
O=[N+]([O-])c1ccc(NN/N=N/c2ccc(-c3nc4ccccc4[nH]3)cc2)c([N+](=O)[O-])c1	TK-10	> 100 µM (inactive)
CSc1ccc(C(=O)C(=O)c2ccc(SC)s2)s1	TK-10	> 10 µM (inactive)
Nc1ccc2c(c1)N(C(=O)CCCC(=O)N1CC(CCl)c3ccc(N)cc31)CC2CCl (configuration not stated)	TK-10	1.53 µM (inactive)
C=C1C(=O)CCC1C(=O)O (configuration not stated)	TK-10	> 100 µM (inactive)

Qu. Recorded GI50 of CCCCCCCCCCCCOC(=N)N1CCOCC1 , please.
Ans. 16.8 µM (inactive)

====

# Test system: MDA-N
# procedure.text: NCI tumour cell line growth inhibition, 48 h
The source made the active and inactive calls. Cut-off read from the data, not from the text of the source: active = GI50 up to about 1.1 µM and inactive = higher.
property.measured: GI50

Solved cases (5 shown):
compound	target.system	GI50
CC(=O)C1=C(c2ccccc2)N(C2OC(CO)C(O)C(O)C2O)C(S)=C(C#N)C1c1ccc(Cl)cc1 (centres undefined)	MDA-N	25.8 µM (inactive)
C=CCCCN(C(=O)c1ccccc1)c1ccc(C(=O)OC)o1	MDA-N	51.9 µM (inactive)
Cc1c(C#N)c2nc3ccccc3n2c(=O)/c1=C/Nc1ccc(Cl)cc1	MDA-N	> 100 µM (inactive)
Clc1ccc(OCc2nnc(CCCCCCCCc3nnc(COc4ccc(Cl)cc4Cl)o3)o2)c(Cl)c1	MDA-N	> 100 µM (inactive)
Nc1ccccc1SC(C[N+](=O)[O-])c1ccc2c(c1)OCO2 (centres undefined)	MDA-N	1.75 µM (inactive)

Qu. Recorded GI50 of Cc1ccc(/C=C2\CCCC(CN(C)C)C2=O)cc1 (centres undefined) , please.
Ans. 1.97 µM (inactive)

Qu. Try the compound COc1cc(/C=C2\C[C@H]3[C@@H]4CC=C5C=C(N6CCCC6)CC[C@]5(C)[C@H]4CC[C@]3(C)C2=O)cc(OC)c1OC
Ans. 2.32 µM (inactive)

Qu. Try the compound CC1(C)C(=O)N=C(N)N1C(=O)OCc1ccccc1
Ans. > 100 µM (inactive)

Qu. Try the compound CC1(C)S[C@@H]2[C@H](NC(=O)/C=C/c3ccccc3)C(=O)N2[C@H]1C(=O)O
Ans. > 100 µM (inactive)
